Ref: patent US20160263097A1

assay: Study 1: open-label 2-way crossover relative bioavailability, tablet vs oral liquid formulation; assay type: in vivo, human; settings: human, plasma, po, 10 mg, Study 1, Treatment A: 2 × 5 mg Phase 3 tablets, oral, healthy subjects; read-out: AUCinf Geo. Mean
outcomeMeasure: AUC(0-inf)

| compound | resultValue |
| --- | --- |
| COc1ccc(-n2nc(C(N)=O)c3c2C(=O)N(c2ccc(N4CCCCC4=O)cc2)CC3)cc1 | 2710 ng·h/mL |

* * *

assay: Study 1: open-label 2-way crossover relative bioavailability, tablet vs oral liquid formulation; assay type: in vivo, human; conditions: human, plasma, oral, 10 mg, Study 1, Treatment A: 2 × 5 mg Phase 3 tablets; read-out: AUCinf Adj.Geo.Mean

| molecule | unitOfMeasurement | AUC(0-inf) |
| --- | --- | --- |
| COc1ccc(-n2nc(C(N)=O)c3c2C(=O)N(c2ccc(N4CCCCC4=O)cc2)CC3)cc1 [Apixaban] | ng·h/mL | 2710 |

* * *

assay: Study 3: open-label 3-way crossover, liquid formulation oral vs NGT with Boost Plus vs crushed tablet via NGT; assay type: in vivo, human; details: Study 3, TRT A: 5 mg oral liquid formulation administered orally

| compound | Cmax Adj.Geo.Mean, ng/mL |
| --- | --- |
| COc1ccc(-n2nc(C(N)=O)c3c2C(=O)N(c2ccc(N4CCCCC4=O)cc2)CC3)cc1 [Apixaban] | 179 |

* * *

assay: Study 2: open-label 3-way crossover, liquid formulation oral vs NGT with D5W or infant formula flush; format: in vivo, human; conditions: human, plasma, po, 5 mg, Study 2, Treatment C: 5 mg (12.5 mL) liquid formulation via NGT followed by 60 mL of infant formula via NGT; read-out: AUC(0-T) Geo. Mean
outcomeMeasure: AUC(0-t) (ng·h/mL)

| compound | resultValue |
| --- | --- |
| COc1ccc(-n2nc(C(N)=O)c3c2C(=O)N(c2ccc(N4CCCCC4=O)cc2)CC3)cc1 | 1150 |

* * *

experiment: Study 1: open-label 2-way crossover relative bioavailability, tablet vs oral liquid formulation; type: in vivo, human; settings: human, plasma, po, 10 mg, Study 1, Treatment B: 25 mL × 0.4 mg/mL liquid formulation, oral, healthy subjects; read-out: AUCinf Geo. Mean

| compound | AUC(0-inf) (ng·h/mL) |
| --- | --- |
| COc1ccc(-n2nc(C(N)=O)c3c2C(=O)N(c2ccc(N4CCCCC4=O)cc2)CC3)cc1 [Apixaban] | 2860 |

* * *

assay: Study 1: open-label 2-way crossover relative bioavailability, tablet vs oral liquid formulation; format: in vivo, human; conditions: human, plasma; summary over all treatments of Studies 1-3 except BOOST Plus; read-out: Tmax median

| compound | Tmax |
| --- | --- |
| COc1ccc(-n2nc(C(N)=O)c3c2C(=O)N(c2ccc(N4CCCCC4=O)cc2)CC3)cc1 | 0.5 to 2 h |

* * *

assay: Study 2: open-label 3-way crossover, liquid formulation oral vs NGT with D5W or infant formula flush; assay type: in vivo, human; conditions: human, plasma, po, 5 mg, Study 2, Treatment A: 5 mg (12.5 mL) liquid formulation by mouth via oral syringe; read-out: T1/2 Mean (converted)
outcomeMeasure: half-life (h)

| compound | outcomeMeasure | resultValue |
| --- | --- | --- |
| COc1ccc(-n2nc(C(N)=O)c3c2C(=O)N(c2ccc(N4CCCCC4=O)cc2)CC3)cc1 [Apixaban] | half-life | 10.5 |

* * *

test: Study 3: open-label 3-way crossover, liquid formulation oral vs NGT with Boost Plus vs crushed tablet via NGT; assay type: in vivo, human; conditions: human, plasma, po, 5 mg, Study 3, TRT A: 5 mg oral liquid formulation administered orally; read-out: AUCinf Adj.Geo.Mean
outcomeMeasure: AUC(0-inf) (ng·h/mL)

| compound | unitOfMeasurement | resultValue |
| --- | --- | --- |
| COc1ccc(-n2nc(C(N)=O)c3c2C(=O)N(c2ccc(N4CCCCC4=O)cc2)CC3)cc1 | ng·h/mL | 1400 |

* * *

test: Study 1: open-label 2-way crossover relative bioavailability, tablet vs oral liquid formulation; assay type: in vivo, human; details: human, plasma, oral, 10 mg, Study 1, Treatment A: 2 × 5 mg Phase 3 tablets; read-out: AUC(0-T) Adj.Geo.Mean
outcomeMeasure: AUC(0-t) (ng·h/mL)

| compound | resultValue |
| --- | --- |
| COc1ccc(-n2nc(C(N)=O)c3c2C(=O)N(c2ccc(N4CCCCC4=O)cc2)CC3)cc1 | 2670 |

* * *

assay: Study 1: open-label 2-way crossover relative bioavailability, tablet vs oral liquid formulation; type: in vivo, human; conditions: human, plasma, po, 10 mg, Study 1, Treatment B: 25 mL × 0.4 mg/mL liquid formulation, oral, healthy subjects; read-out: AUC(0-T) Geo. Mean

| compound | AUC(0-t) (ng·h/mL) |
| --- | --- |
| COc1ccc(-n2nc(C(N)=O)c3c2C(=O)N(c2ccc(N4CCCCC4=O)cc2)CC3)cc1 | 2790 |

* * *

test: Study 3: open-label 3-way crossover, liquid formulation oral vs NGT with Boost Plus vs crushed tablet via NGT; format: in vivo, human; conditions: human, plasma, other: via nasogastric tube (NGT), 5 mg, Study 3, TRT C: 5 mg crushed tablet via NGT (suspended in 60 mL D5W); read-out: AUCinf Geo. Mean (% CV)
outcomeMeasure: AUC(0-inf) (ng·h/mL)

| compound | resultValue |
| --- | --- |
| COc1ccc(-n2nc(C(N)=O)c3c2C(=O)N(c2ccc(N4CCCCC4=O)cc2)CC3)cc1 | 1320 |

* * *

experiment: Study 3: open-label 3-way crossover, liquid formulation oral vs NGT with Boost Plus vs crushed tablet via NGT; assay type: in vivo, human; settings: Study 3, TRT C: 5 mg crushed tablet via NGT (suspended in 60 mL D5W)

| compound | Cmax Geo. Mean (% CV) / ng/mL |
| --- | --- |
| COc1ccc(-n2nc(C(N)=O)c3c2C(=O)N(c2ccc(N4CCCCC4=O)cc2)CC3)cc1 | 158 |

* * *

assay: Study 2: open-label 3-way crossover, liquid formulation oral vs NGT with D5W or infant formula flush; assay type: in vivo, human; settings: human, plasma, oral, 5 mg, Study 2, Treatment A: liquid formulation by mouth; read-out: AUC(0-T) Adj.Geo.Mean
outcomeMeasure: AUC(0-t) (ng·h/mL)

| compound | outcomeMeasure | resultValue |
| --- | --- | --- |
| COc1ccc(-n2nc(C(N)=O)c3c2C(=O)N(c2ccc(N4CCCCC4=O)cc2)CC3)cc1 | AUC(0-t) | 1270 |

* * *

assay: Study 2: open-label 3-way crossover, liquid formulation oral vs NGT with D5W or infant formula flush; type: in vivo, human; conditions: human, plasma, po, 5 mg, Study 2, Treatment B: 5 mg (12.5 mL) liquid formulation via NGT followed by 60 mL of D5W via NGT; read-out: Tmax Median

| compound | Tmax [h] |
| --- | --- |
| COc1ccc(-n2nc(C(N)=O)c3c2C(=O)N(c2ccc(N4CCCCC4=O)cc2)CC3)cc1 | 1 |

* * *

assay: Study 2: open-label 3-way crossover, liquid formulation oral vs NGT with D5W or infant formula flush; type: in vivo, human; conditions: human, plasma, 5 mg, Study 2, across the 3 treatments; read-out: median Tmax
outcomeMeasure: Tmax

| molecule | outcomeMeasure | resultValue |
| --- | --- | --- |
| COc1ccc(-n2nc(C(N)=O)c3c2C(=O)N(c2ccc(N4CCCCC4=O)cc2)CC3)cc1 [Apixaban] | Tmax | 30 to 60 min |

* * *

assay: Study 3: open-label 3-way crossover, liquid formulation oral vs NGT with Boost Plus vs crushed tablet via NGT; format: in vivo, human; details: human, plasma, other: via nasogastric tube (NGT), 5 mg, Study 3, TRT C: 5 mg crushed tablet via NGT (suspended in 60 mL D5W); read-out: AUC(0-T) Geo. Mean (% CV)

| compound | AUC(0-t) |
| --- | --- |
| COc1ccc(-n2nc(C(N)=O)c3c2C(=O)N(c2ccc(N4CCCCC4=O)cc2)CC3)cc1 | 1300 ng·h/mL |

* * *

assay: Study 1: open-label 2-way crossover relative bioavailability, tablet vs oral liquid formulation; format: in vivo, human; conditions: human, plasma, po, 10 mg, Study 1, Treatment A: 2 × 5 mg Phase 3 tablets, oral, healthy subjects; read-out: T1/2 Mean (converted)

| compound | half-life (h) |
| --- | --- |
| COc1ccc(-n2nc(C(N)=O)c3c2C(=O)N(c2ccc(N4CCCCC4=O)cc2)CC3)cc1 [Apixaban] | 12.3 |

* * *

assay: Study 2: open-label 3-way crossover, liquid formulation oral vs NGT with D5W or infant formula flush; type: in vivo, human; conditions: human, plasma, po, 5 mg, Study 2, Treatment C: 5 mg (12.5 mL) liquid formulation via NGT followed by 60 mL of infant formula via NGT; read-out: Tmax Median
outcomeMeasure: Tmax (h)

| compound | resultValue |
| --- | --- |
| COc1ccc(-n2nc(C(N)=O)c3c2C(=O)N(c2ccc(N4CCCCC4=O)cc2)CC3)cc1 [Apixaban] | 1 |
